Target: Hco-ACC-2 WT channel (Haemonchus contortus)
Sequence (A0A219KWM7 18-443): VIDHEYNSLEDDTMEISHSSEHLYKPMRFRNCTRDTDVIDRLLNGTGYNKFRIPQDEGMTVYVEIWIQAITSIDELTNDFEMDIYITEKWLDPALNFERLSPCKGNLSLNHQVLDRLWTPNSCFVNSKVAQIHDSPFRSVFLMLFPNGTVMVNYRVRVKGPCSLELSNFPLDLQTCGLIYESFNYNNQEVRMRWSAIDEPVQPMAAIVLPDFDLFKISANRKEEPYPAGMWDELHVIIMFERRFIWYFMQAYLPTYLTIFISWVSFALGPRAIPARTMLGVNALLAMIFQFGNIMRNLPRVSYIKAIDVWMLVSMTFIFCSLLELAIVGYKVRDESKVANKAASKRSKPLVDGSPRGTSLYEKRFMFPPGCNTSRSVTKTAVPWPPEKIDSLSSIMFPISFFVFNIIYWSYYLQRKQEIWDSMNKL
Conditions: wild-type channel; partial = maximum response lower than 100% of ACh
Where a name gives a salt, the structure may show the parent alone.
OBSERVABLE: full or partial agonist

- MOLECULE: "CC(=O)OCC[N+](C)(C)C"
  OBSERVABLE: "full or partial agonist"
  RESULT: "full agonists"
- MOLECULE: "CC(=O)OC(C)C[N+](C)(C)C (stereo not drawn) [Methacholine, Acetyl-β-methylcholine Chloride]"
  OBSERVABLE: "full or partial agonist"
  RESULT: "full agonists"
- MOLECULE: "C[N+](C)(C)CCOC(N)=O [Carbachol, Carbamoylcholine Chloride]"
  OBSERVABLE: "full or partial agonist"
  RESULT: "partial agonists"
- MOLECULE: "c1ccc([C@H]2CN3CCSC3=N2)cc1 [Levamisole, Levamisole Hydrochloride]"
  OBSERVABLE: "full or partial agonist"
  RESULT: "partial agonists"
- MOLECULE: "CC(C[N+](C)(C)C)OC(N)=O (stereo not drawn) [Urecholine, Carbamyl-β-methylcholine chloride]"
  OBSERVABLE: "full or partial agonist"
  RESULT: "partial agonists"

--- query ---
Query: Respond only with full or partial agonist recorded for CN1CCCN=C1/C=C/c1cccs1 [Pyrantel, Pyrantel Citrate Salt]
Result: partial agonists

* * *

This section presents compounds with their documented pEC50 values.
Target: UniProt:A0A219KWM7
Experiment: cell-based
Conditions: EC50 ± standard error, n ≥ 5 oocytes
Where a name gives a salt, the structure may show the parent alone.
Scale explanation: pEC50 corresponds to minus log10 of a concentration expressed in moles per litre.

- COMPOUND: "C[N+](C)(C)CCO [Choline, Choline Chloride]"
  TARGET_DESC: "UniProt:A0A219KWM7"
  OBSERVABLE: "pEC50"
  QUANTITATIVE_RESULT: 2.89

Query: Give the measured pEC50 for CC(=O)OC(C)C[N+](C)(C)C (stereo not drawn) [Methacholine, Acetyl-β-methylcholine Chloride]
Result: 4.00

Query: Give pEC50 for CN1CCCN=C1/C=C/c1cccs1 [Pyrantel, Pyrantel Citrate Salt]
Result: 4.14

Query: Read the entry CC(C[N+](C)(C)C)OC(N)=O (stereo not drawn) [Urecholine, Carbamyl-β-methylcholine chloride] and write its reported pEC50.
Result: 3.13

Query: Answer with the recorded pEC50 for the compound listed here: C[N+](C)(C)CCOC(N)=O [Carbachol, Carbamoylcholine Chloride]
Result: 4.37

Query: Answer with the recorded pEC50 of c1ccc([C@H]2CN3CCSC3=N2)cc1 [Levamisole, Levamisole Hydrochloride] only.
Result: 4.01
